# ASSAYED_SYSTEM: T1, human α4β7 integrin on cells (human, UniProt P13612 34-1032; P26010 20-798)
# T1 construct: whole, on cells; also called α4β7 cell (Hu); RPMI8866 cells
# PROCEDURE_DETAILS: RPMI8866 cell adhesion to MAdCAM-1
Bridge positions count the residues as written; N and C are the ends. Square brackets hold non-standard residues; d marks the D form. NMeR = CN[C@@H](CCCNC(=N)N)C(=O)O; β3hE = N[C@@H](CCC(=O)O)CC(=O)O; Pen = CC(C)(S)[C@H](N)C(=O)O
Here, each record is paired with measured IC50 data.
MEASURED_QUANTITY: IC50

1. Ac-[Pen][NMeR]SDTL[Pen]W[β3hE][dK]-NH2 (disulfide 1-7; not fully specified (residue 10); printed as (Ac Pen N-Me-R S D T L Pen W b-h-E k NH2)2 DIG, disulfide Pen-Pen; also: dimer, two subunits joined by DIG linker, also called peptide 213; Peptide XX) [SEQ ID NO: 213] ... 12 nM
2. Ac-C[NMeR]SDTL[Pen][dK]-NH2 (disulfide 1-7; also: homodimer via IDA linker on D-Lys8 side chains, also called peptide 203) [SEQ ID NO: 203] ... 200 nM
